tested on: U-251; assay: NCI tumour cell line growth inhibition, 48 h
Activity calls are given as the source filed them. Cut-off read from the data, not from the text of the source: active = GI50 up to about 1.1 µM and inactive = higher.
The entries below are paired with their reported GI50.

Some solved cases for reference:
COc1nc2sc3c(c2c(=O)n1CCCSSCCCn1c(OC)nc2sc4c(c2c1=O)CCCC4)CCCC3: > 100 µM (inactive)
COc1ccc(/C=N/Nc2nc(=S)[nH]c3[nH]ncc23)cc1: 19.1 µM (inactive)
O=C(CC1=Nc2nnc(CCCCCCCc3nnc4n3C(=O)C(CC(=O)c3ccccc3)=N4)n2C1=O)c1ccccc1: > 100 µM (inactive)
Cc1c2c(Cl)c3c(c(Cl)c2c(C)c2c(Cl)c4c(c(Cl)c12)C(c1ccccc1)(c1ccccc1)C4(c1ccccc1)c1ccccc1)C(c1ccccc1)(c1ccccc1)C3(c1ccccc1)c1ccccc1: > 100 µM (inactive)
O=C1CC2CCN(C(=O)c3ccccc3)CC2CCN1 (centres undefined): > 100 µM (inactive)

Task item: Suppose we examine the compound `Cc1cccc(/C=C2/C(=O)Nc3ccccc32)n1` ; what GI50 value has been reported?
Reply: 15.7 µM (inactive)

Task item: Now try `COc1ccc2oc(OC)c(CC=C(C)C)c(=O)c2c1C` .
Reply: > 100 µM (inactive)

Task item: And for `COC(=O)c1cc2c(cc1Cl)Sc1nnc(Nc3ccc(C)cc3)n1S2(=O)=O` ?
Reply: 3.87 µM (inactive)

Task item: Okay, and `COc1ccc2c(c1OC)C(=O)N/C2=C\c1c(CCN(C)C)cc2c(c1OC)OCO2` ?
Reply: > 100 µM (inactive)

This collection of values is drawn from ChEMBL document CHEMBL1201862.
